# Assayed target: Fatty-acid amide hydrolase 1 (Homo sapiens, UniProt O00519)
# Sequence (O00519 whole entry): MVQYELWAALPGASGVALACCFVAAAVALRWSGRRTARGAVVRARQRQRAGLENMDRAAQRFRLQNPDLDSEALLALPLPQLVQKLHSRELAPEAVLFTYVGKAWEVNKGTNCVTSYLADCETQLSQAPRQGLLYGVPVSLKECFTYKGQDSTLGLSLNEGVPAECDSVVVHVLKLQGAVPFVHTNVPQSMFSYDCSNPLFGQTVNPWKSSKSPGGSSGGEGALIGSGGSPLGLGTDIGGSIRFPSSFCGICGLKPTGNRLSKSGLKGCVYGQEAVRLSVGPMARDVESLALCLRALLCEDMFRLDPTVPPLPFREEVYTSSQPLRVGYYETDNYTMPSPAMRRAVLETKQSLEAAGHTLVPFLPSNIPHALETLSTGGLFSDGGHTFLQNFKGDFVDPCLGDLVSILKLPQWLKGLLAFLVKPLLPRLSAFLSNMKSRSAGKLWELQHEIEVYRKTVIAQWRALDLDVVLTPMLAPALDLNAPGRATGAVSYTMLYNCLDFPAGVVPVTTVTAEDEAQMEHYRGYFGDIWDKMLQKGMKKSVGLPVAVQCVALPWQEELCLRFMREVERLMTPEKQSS
# Protocol notes: Inhibition of human FAAH expressed in human H4 cells

| Chemical string | Assayed target | IC50 / nM |
| --- | --- | --- |
| CCCCOc1ccc(CNC(=O)ON=C(C)C)cc1 | Fatty-acid amide hydrolase 1 (Homo sapiens, UniProt O00519) | 570 |
| CCCCCCCCCCCOc1ccc(NC(=O)O/N=C/c2ccc(F)cc2)cc1 | Fatty-acid amide hydrolase 1 (Homo sapiens, UniProt O00519) | 0.4 |
| CCCCCCCCCCOc1ccc(NC(=O)O/N=C/c2ccccc2)cc1 | Fatty-acid amide hydrolase 1 (Homo sapiens, UniProt O00519) | 0.35 |
| CCCOc1ccc(NC(=O)ON=C(C)C)cc1 | Fatty-acid amide hydrolase 1 (Homo sapiens, UniProt O00519) | 210 |
| CCCCCCCCCCOc1ccc(NC(=O)Oc2ccccc2F)cc1 | Fatty-acid amide hydrolase 1 (Homo sapiens, UniProt O00519) | 9.2 |
| CCCCCCCCOc1ccc(NC(=O)O/N=C/c2ccccc2)cc1 | Fatty-acid amide hydrolase 1 (Homo sapiens, UniProt O00519) | 0.43 |

* * *

# Assayed target: Fatty-acid amide hydrolase 1 (Homo sapiens)
# Protocol notes: Inhibition of human FAAH expressed in human H4 cells

| Compound | Assayed target | IC50 (nM) |
| --- | --- | --- |
| CCCCCCOc1ccc(NC(=O)Oc2ccccc2)cc1 | Fatty-acid amide hydrolase 1 (Homo sapiens) | 31 |
| CCCCCCCCCCCOc1ccc(NC(=O)Oc2ccccc2)cc1 | Fatty-acid amide hydrolase 1 (Homo sapiens) | 1 |
| CCCCCCCCCOc1ccc(NC(=O)O/N=C/c2ccccc2)cc1 | Fatty-acid amide hydrolase 1 (Homo sapiens) | 0.25 |
| CCCCOc1ccc(C(CC)NC(=O)Oc2cccc(N(C)C)c2)cc1 (configuration not stated) | Fatty-acid amide hydrolase 1 (Homo sapiens) | 54 |
| CCCCCCCCCCCOc1ccc(NC(=O)ON=C(C)C)cc1 | Fatty-acid amide hydrolase 1 (Homo sapiens) | 4.9 |
| CCCCOc1ccc(C(CC)NC(=O)Oc2ccc(OC)cc2)cc1 (configuration not stated) | Fatty-acid amide hydrolase 1 (Homo sapiens) | 12 |
| CCCCCCCCCCCCOc1ccc(NC(=O)Oc2ccccc2F)cc1 | Fatty-acid amide hydrolase 1 (Homo sapiens) | 13 |
| CCCCOc1ccc(NC(=O)ON=C(C)C)cc1OC | Fatty-acid amide hydrolase 1 (Homo sapiens) | 11000 |
| CCCOc1ccc(NC(=O)O/N=C/c2cccnc2)cc1 | Fatty-acid amide hydrolase 1 (Homo sapiens) | 29 |
| CCCOc1ccc(NC(=O)O/N=C/c2ccccc2)cc1 | Fatty-acid amide hydrolase 1 (Homo sapiens) | 9.3 |
| CCCCCCCCCCCOc1ccc(NC(=O)Oc2ccccc2F)cc1 | Fatty-acid amide hydrolase 1 (Homo sapiens) | 15 |
| CCCCCCCCCCOc1ccc(NC(=O)O/N=C/c2cccnc2)cc1 | Fatty-acid amide hydrolase 1 (Homo sapiens) | 0.35 |

* * *

# Assayed target: Fatty-acid amide hydrolase 1 (Homo sapiens, UniProt O00519)
# Protocol notes: Inhibition of human FAAH expressed in human H4 cells
pIC50: −log10 of the molar value.
Please enter t where pIC50 is greater than or equal to 8, and f where it is lower.

| Compound | Assayed target | Class |
| --- | --- | --- |
| CCOc1ccc(NC(=O)O/N=C/c2ccc(F)cc2)cc1 | Fatty-acid amide hydrolase 1 (Homo sapiens, UniProt O00519) | f |
| CCCCCCCCOc1ccc(NC(=O)O/N=C/c2cccnc2)cc1 | Fatty-acid amide hydrolase 1 (Homo sapiens, UniProt O00519) | t |
| CCc1ccc(-c2ccc(NC(=O)Oc3ccccc3F)cc2)cc1 | Fatty-acid amide hydrolase 1 (Homo sapiens, UniProt O00519) | f |
| CCCCCCCCCCCCOc1ccc(NC(=O)Oc2ccccc2)cc1 | Fatty-acid amide hydrolase 1 (Homo sapiens, UniProt O00519) | t |
| CCCCOc1ccc(NC(=O)O/N=C/c2ccc(F)cc2)cc1 | Fatty-acid amide hydrolase 1 (Homo sapiens, UniProt O00519) | t |
| CCCCCCCCCCCOc1ccc(NC(=O)O/N=C/c2ccccc2)cc1 | Fatty-acid amide hydrolase 1 (Homo sapiens, UniProt O00519) | t |
| CCCCOc1ccc(C(CC)NC(=O)Oc2cccc(C(F)(F)F)c2)cc1 (configuration not stated) | Fatty-acid amide hydrolase 1 (Homo sapiens, UniProt O00519) | f |
